Task for the reader: assign each of the following molecules its reported viability, T/C.
System: MDA-MB-468 spheroids with HUVEC/MSC, viability
Assay: Anticancer human tumor MDA-MB-468 cell line growth inhibition [PI3K];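 further: spheroids exposed to agents for seven days before readout; 100% = DMSO vehicle control viability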
Conditions: second compound 3.16 µM; first compound 0.0316 µM; active compounds read low
Give bare numbers, in %.

Please review the following examples before continuing.
1) CC(=O)c1c(C)c2cnc(Nc3ccc(N4CCNCC4)cn3)nc2n(C2CCCC2)c1=O + CC(Nc1ncnc2nc[nH]c12)c1cc2cccc(Cl)c2c(=O)n1-c1ccccc1; 67.2
2) C=CC(=O)N1CCN(c2nc(=O)n(-c3c(C)ccnc3C(C)C)c3nc(-c4c(O)cccc4F)c(F)cc23)C(C)C1 (configuration not stated) + CC(Nc1ncnc2nc[nH]c12)c1cc2cccc(Cl)c2c(=O)n1-c1ccccc1; 54.5
3) CC(=O)c1c(C)c2cnc(Nc3ccc(N4CCNCC4)cn3)nc2n(C2CCCC2)c1=O + Cc1nc(NC(=O)N2CCCC2C(N)=O)sc1-c1ccnc(C(C)(C)C(F)(F)F)c1; 55.4
4) CC1(C)CCC(Nc2ncc(C(F)(F)F)c(-c3c[nH]c4c(P(C)(C)=O)c(C#N)ccc34)n2)CN1 (configuration not stated) + Cc1nc(NC(=O)N2CCCC2C(N)=O)sc1-c1ccnc(C(C)(C)C(F)(F)F)c1; 15.4
5) CC(C)NCC(C(=O)N1CCN(c2ncnc3c2C(C)CC3O)CC1)c1ccc(Cl)cc1 (configuration not stated) + Cc1nc(NC(=O)N2CCCC2C(N)=O)sc1-c1ccnc(C(C)(C)C(F)(F)F)c1; 62.9

Batch request: viability, T/C per item, same order as input.
1. Cn1ncc(Cl)c1-c1cc(C(=O)NC(CN)Cc2cccc(F)c2)sc1Cl (configuration not stated) + CC(Nc1ncnc2nc[nH]c12)c1cc2cccc(Cl)c2c(=O)n1-c1ccccc1
2. CC(C)n1nc(-c2ccc3oc(N)nc3c2)c2c(N)ncnc21 + CC(Nc1ncnc2nc[nH]c12)c1cc2cccc(Cl)c2c(=O)n1-c1ccccc1
3. CC1(C)CCC(CN2CCN(c3ccc(C(=O)NS(=O)(=O)c4ccc(NCC5CCOCC5)c([N+](=O)[O-])c4)c(Oc4cnc5[nH]ccc5c4)c3)CC2)=C(c2ccc(Cl)cc2)C1 + CC(Nc1ncnc2nc[nH]c12)c1cc2cccc(Cl)c2c(=O)n1-c1ccccc1
4. CCCS(=O)(=O)Nc1ccc(F)c(C(=O)c2c[nH]c3ncc(-c4ccc(Cl)cc4)cc23)c1F + CC(Nc1ncnc2nc[nH]c12)c1cc2cccc(Cl)c2c(=O)n1-c1ccccc1
5. CNC(=O)c1ccc(N2C(=S)N(c3ccc(C#N)c(C(F)(F)F)c3)C(=O)C2(C)C)cc1F + Cc1nc(NC(=O)N2CCCC2C(N)=O)sc1-c1ccnc(C(C)(C)C(F)(F)F)c1
6. Cn1nccc1Nc1nccc(-c2ccn(C(CO)c3ccc(Cl)c(F)c3)c(=O)c2)n1 (configuration not stated) + CC(Nc1ncnc2nc[nH]c12)c1cc2cccc(Cl)c2c(=O)n1-c1ccccc1

1. 51.7
2. 36.2
3. 50
4. 53.6
5. 79.8
6. 56.6

Batch request: viability, T/C per item, same order as input.
1. CC(Cn1ccc(-c2ccc(C#N)c(Cl)c2)n1)NC(=O)c1cc(C(C)O)[nH]n1 (configuration not stated) + CC(Nc1ncnc2nc[nH]c12)c1cc2cccc(Cl)c2c(=O)n1-c1ccccc1
2. CC1(C)CCC(CN2CCN(c3ccc(C(=O)NS(=O)(=O)c4ccc(NCC5CCOCC5)c([N+](=O)[O-])c4)c(Oc4cnc5[nH]ccc5c4)c3)CC2)=C(c2ccc(Cl)cc2)C1 + Cc1nc(NC(=O)N2CCCC2C(N)=O)sc1-c1ccnc(C(C)(C)C(F)(F)F)c1
3. Cn1ncc(Cl)c1-c1cc(C(=O)NC(CN)Cc2cccc(F)c2)sc1Cl (configuration not stated) + Cc1nc(NC(=O)N2CCCC2C(N)=O)sc1-c1ccnc(C(C)(C)C(F)(F)F)c1
4. C[C@@H](NC(=O)c1ncnc(N)c1Cl)c1ncc(C(=O)Nc2cc(C(F)(F)F)c(Cl)cn2)s1 + CC(Nc1ncnc2nc[nH]c12)c1cc2cccc(Cl)c2c(=O)n1-c1ccccc1
5. C#Cc1c(F)ccc2cc(O)cc(-c3ncc4c(N5CC6CCC(C5)N6)nc(OCC56CCCN5CC(F)C6)nc4c3F)c12 (configuration not stated) + Cc1nc(NC(=O)N2CCCC2C(N)=O)sc1-c1ccnc(C(C)(C)C(F)(F)F)c1
6. CC(Cn1ccc(-c2ccc(C#N)c(Cl)c2)n1)NC(=O)c1cc(C(C)O)[nH]n1 (configuration not stated) + Cc1nc(NC(=O)N2CCCC2C(N)=O)sc1-c1ccnc(C(C)(C)C(F)(F)F)c1
7. CCCS(=O)(=O)Nc1ccc(F)c(C(=O)c2c[nH]c3ncc(-c4ccc(Cl)cc4)cc23)c1F + Cc1nc(NC(=O)N2CCCC2C(N)=O)sc1-c1ccnc(C(C)(C)C(F)(F)F)c1

[60.6, 77.8, 66.7, 61.8, 80.5, 74.4, 72.3]

Batch request: viability, T/C per item, same order as input.
1. CNC(=O)c1ccc(N2C(=S)N(c3ccc(C#N)c(C(F)(F)F)c3)C(=O)C2(C)C)cc1F + CC(Nc1ncnc2nc[nH]c12)c1cc2cccc(Cl)c2c(=O)n1-c1ccccc1
2. CC(C)NCC(C(=O)N1CCN(c2ncnc3c2C(C)CC3O)CC1)c1ccc(Cl)cc1 (configuration not stated) + CC(Nc1ncnc2nc[nH]c12)c1cc2cccc(Cl)c2c(=O)n1-c1ccccc1
3. CC1(C)CCC(Nc2ncc(C(F)(F)F)c(-c3c[nH]c4c(P(C)(C)=O)c(C#N)ccc34)n2)CN1 (configuration not stated) + CC(Nc1ncnc2nc[nH]c12)c1cc2cccc(Cl)c2c(=O)n1-c1ccccc1
4. CC(C)n1nc(-c2ccc3oc(N)nc3c2)c2c(N)ncnc21 + Cc1nc(NC(=O)N2CCCC2C(N)=O)sc1-c1ccnc(C(C)(C)C(F)(F)F)c1

52.6
57.5
11.8
31.8

###

Task for the reader: assign each of the following compounds its reported viability, T/C.
System: MDA-MB-468 spheroids with HUVEC/MSC, viability
Assay: Anticancer human tumor MDA-MB-468 cell line growth inhibition [PI3K];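 further: spheroids exposed to agents for seven days before readout; 100% = DMSO vehicle control viability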
Settings: second compound 3.16 µM; first compound 1 µM; active compounds read low
One number for each entry, in %.

Please review the following examples before continuing.
1. CCCS(=O)(=O)Nc1ccc(F)c(C(=O)c2c[nH]c3ncc(-c4ccc(Cl)cc4)cc23)c1F + Cc1nc(NC(=O)N2CCCC2C(N)=O)sc1-c1ccnc(C(C)(C)C(F)(F)F)c1; 62.9
2. CC(C)NCC(C(=O)N1CCN(c2ncnc3c2C(C)CC3O)CC1)c1ccc(Cl)cc1 (stereo not drawn) + Cc1nc(NC(=O)N2CCCC2C(N)=O)sc1-c1ccnc(C(C)(C)C(F)(F)F)c1; 33

Switching to the query record.
Recorded result, Cn1ncc(Cl)c1-c1cc(C(=O)NC(CN)Cc2cccc(F)c2)sc1Cl (stereo not drawn) + CC(Nc1ncnc2nc[nH]c12)c1cc2cccc(Cl)c2c(=O)n1-c1ccccc1 , viability, T/C: 32.6

###

Tested on: MDA-MB-468 spheroids with HUVEC/MSC, viability
Test: Anticancer human tumor MDA-MB-468 cell line growth inhibition [PI3K];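 further: spheroids exposed to agents for seven days before readout; 100% = DMSO vehicle control viability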
Conditions: second compound 10 µM; first compound 3.16 µM; active compounds read low
viability, T/C strictly under 20% means MET; at 20% or over means NOT MET.

These recorded examples may help you get a feel for the data.
1) CC(Cn1ccc(-c2ccc(C#N)c(Cl)c2)n1)NC(=O)c1cc(C(C)O)[nH]n1 (configuration not stated) + Cc1nc(NC(=O)N2CCCC2C(N)=O)sc1-c1ccnc(C(C)(C)C(F)(F)F)c1; NOT MET
2) CC(C)NCC(C(=O)N1CCN(c2ncnc3c2C(C)CC3O)CC1)c1ccc(Cl)cc1 (configuration not stated) + Cc1nc(NC(=O)N2CCCC2C(N)=O)sc1-c1ccnc(C(C)(C)C(F)(F)F)c1; MET
3) C#Cc1c(F)ccc2cc(O)cc(-c3ncc4c(N5CC6CCC(C5)N6)nc(OCC56CCCN5CC(F)C6)nc4c3F)c12 (configuration not stated) + Cc1nc(NC(=O)N2CCCC2C(N)=O)sc1-c1ccnc(C(C)(C)C(F)(F)F)c1; MET

Does the reported viability, T/C of the following compound sit strictly below 20%? C[C@@H](NC(=O)c1ncnc(N)c1Cl)c1ncc(C(=O)Nc2cc(C(F)(F)F)c(Cl)cn2)s1 + Cc1nc(NC(=O)N2CCCC2C(N)=O)sc1-c1ccnc(C(C)(C)C(F)(F)F)c1
NOT MET

Does the reported viability, T/C of the following compound sit strictly below 20%? Cn1nccc1Nc1nccc(-c2ccn(C(CO)c3ccc(Cl)c(F)c3)c(=O)c2)n1 (configuration not stated) + Cc1nc(NC(=O)N2CCCC2C(N)=O)sc1-c1ccnc(C(C)(C)C(F)(F)F)c1
MET

Does the reported viability, T/C of the following compound sit strictly below 20%? Cn1ncc(Cl)c1-c1cc(C(=O)NC(CN)Cc2cccc(F)c2)sc1Cl (configuration not stated) + CC(Nc1ncnc2nc[nH]c12)c1cc2cccc(Cl)c2c(=O)n1-c1ccccc1
NOT MET
